Values compiled from patent US20260015426A1.

Molecular target: T1, hu-S-IL1RAP construct, positions S21-Q356 (soluble human IL1RAP) (human, UniProt Q9NPH3 21-350)
T1 sequence: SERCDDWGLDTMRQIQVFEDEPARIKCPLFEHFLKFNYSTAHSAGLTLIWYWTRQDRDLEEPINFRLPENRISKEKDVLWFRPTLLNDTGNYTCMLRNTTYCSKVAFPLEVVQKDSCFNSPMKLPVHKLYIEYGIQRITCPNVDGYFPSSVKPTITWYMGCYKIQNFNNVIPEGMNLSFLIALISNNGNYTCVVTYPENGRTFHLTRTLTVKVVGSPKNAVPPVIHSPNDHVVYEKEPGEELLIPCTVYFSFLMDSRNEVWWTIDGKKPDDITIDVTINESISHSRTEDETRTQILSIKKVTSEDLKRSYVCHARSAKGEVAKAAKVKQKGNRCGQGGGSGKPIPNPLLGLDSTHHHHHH
Test: ELISA, purified mAb
Listed below: pEC50 values for each entry.
To interpret pEC50, take it as minus log10 of a concentration measured in moles per litre.

Check out these entries, answers already filled in.
[[record]]
binder = "9D5 (purified mAb from hybridoma 9D5) (antibody, V domains shown, Mouse hybridoma mAb) VH: QVQLQQSGAELARPGASVKFSCKASGYTFTSYWMQWVKQRPGQGLEWIGTIYPGDGNTRYTQKFKGKATLTADKSSSTAYMQLSGLASEDSAVYYCARGYFGNLVFDVWGAGTTVTVSS VL: DIKMTQSPSSMYASLGERVTITCKASQDINTYLSWFLQKPGKSPKTLIYRADRLVDGVPSRFSGGGSGQDYSLTISSLEYEDLGIYYCLQYDEFPYTFGSGTKLEIK"
measured_result = 10.44

[[record]]
binder = "11C5(Hy) (purified mAb from the 11C5 hybridoma) (antibody, V domains shown, Mouse hybridoma mAb; also called 11C5(Hy) mAb; mAb 11C5(Hy)) VH: EVQLVESGGGLVKPGGSLKLSCAASGFTFSNYAMSWVRQTPEKRLEWVATVTEGGDYNYCLDDVKGRFTISRDNANDNLYLQMSHLKSEDSARYYCARDRWPYFFDYWGQGTTLTVSS VL: DIQMTQSPASLSVSVGETVTITCRASENIYSNLAWYQQKQGRSPQLLVYGAKNLADGVPSRFSGSGSGTQYSLNINSLQSEDFGTYYCQHFWTTPRTFGGGTKLEIK"
measured_result = 10.54

[[record]]
binder = "8H1 (purified mAb from hybridoma 8H1) (antibody, V domains shown, Mouse hybridoma mAb) VH: QVQLQQSGPELVKSGASVRISCKASGYAFSGSWMNWVKQRPGKGLEWIGRIYPGDGNTNYNGKFKDKATLTADKSSSTAFMQLSSLTSEDSAVYFCARDYYLFYFDYWGQGTTLTVSS VL: NIVMTQTPKFLPVAAEDRVIITCKASQDVSNEVAWYQQKPGQSPKLLMYYASNRYTGVPDRFTGSGSGTDFTFTISSVQVEDLAVYFCQQHYSSPLTFGAGTKLELK"
measured_result = 9.73


Next:
The binder listed as 13D8 (purified mAb from hybridoma 13D8) (antibody, V domains shown, Mouse hybridoma mAb) VH: EVQLVESGGGLVKPGGSLKLSCTASGFTFSNYAMSWVRQTPEKRLEWVATISDGGNYTYYPDNVKGRFTISRDIAKNNLYLQMSHLKSEDTAMYYCARDRWPYFFDFWGQGTTLTVSS VL: DIQMTQSPASLSVSVGETVTITCRASDNIYSNLAWYQEKQGKSPQLLVYGATNLADGVPSRFSGSGSGTQYSLKINSLQSEDFGSYYCQHFWTTPRSFGGGTKLELK has a reported pEC50 of 10.46
